Tested on: M14
Test: NCI tumour cell line growth inhibition, 48 h
Active and inactive are the calls of the source. Cut-off read from the data, not from the text of the source: active = GI50 up to about 1.1 µM and inactive = higher.

- molecule: "O=C1c2ccccc2CC12Cc1ccc3c(c1C2)CCC3 (stereo unspecified)"
  target: "M14"
  GI50: "19.1 µM (inactive)"
- molecule: "COC(=O)c1ccccc1/N=C(/NC1CCCCCC1)NS(=O)(=O)c1ccc(C)cc1"
  target: "M14"
  GI50: "> 100 µM (inactive)"
- molecule: "Nc1ccc2nc(-c3cccc(C(F)(F)F)c3)cc(O)c2c1"
  target: "M14"
  GI50: "59.6 µM (inactive)"
- molecule: "CN/C=C(/c1ccc(OC)cc1)C(O)c1ccc(OC)c(OC)c1 (stereo unspecified)"
  target: "M14"
  GI50: "> 100 µM (inactive)"
- molecule: "Cc1ccc(S(=O)(=O)N(CC(=O)O)c2ccccc2)cc1"
  target: "M14"
  GI50: "> 100 µM (inactive)"
- molecule: "CCOC(=O)Cn1c(=O)c2cc(C)cc3c(Cl)nc4c(OC)c(OC)cc1c4c32"
  target: "M14"
  GI50: "> 100 µM (inactive)"

###

Tested on: NCI-H460
Assay: NCI tumour cell line growth inhibition, 48 h
Active and inactive are the calls of the source. Cut-off read from the data, not from the text of the source: active = GI50 up to about 1.1 µM and inactive = higher.
Classes used: True (active), False (inactive)

- compound: "COc1ccc(NC(=S)NC(=O)c2ccc3c(c2)Sc2ccccc2O3)c([N+](=O)[O-])c1"
  label: "False"
- compound: "COc1ccc(NCc2cc(OC)c(OC)c(OC)c2)cc1"
  label: "True"
- compound: "Cc1ccc2c(c1)-c1c(C#N)c(N)nc(-c3ccccc3)c1CCS2(=O)=O"
  label: "False"
- compound: "COc1ccc(C[C@@H](C(=O)O[C@H](C)[C@H](NC(=O)[C@@H](CC(C)C)N(C)C(=O)C2CCCN2C(=O)[C@H](C)O)C(=O)N2CCCCNC(=O)[C@@H](C)C(=O)[C@H](C(C)C)OC(=O)C[C@H](O)[C@H]2CC(C)C)N(C)C(C)=O)cc1 (some centres undefined)"
  label: "False"
- compound: "Oc1c(CNCCCN2CCCC2)cc(Cl)c2cccnc12"
  label: "False"
- compound: "COC(=O)c1c(C)oc2ccc(OC(C)=O)cc12"
  label: "False"
- compound: "Oc1ccc2cc(Br)ccc2c1-c1c(O)ccc2ccc(Br)cc12"
  label: "False"
- compound: "O=c1oc2ccc(Cl)cc2cc1-c1cn2ccsc2n1"
  label: "False"
- compound: "COc1cc(CNc2ccc(SC)cc2)cc(OC)c1OC"
  label: "False"

###

System: HOP-18
Assay: NCI tumour cell line growth inhibition, 48 h
Calls of active or inactive are those of the source. Cut-off read from the data, not from the text of the source: active = GI50 up to about 1.1 µM and inactive = higher.
assay-metric: GI50

- compound: "CN(C)CCNC(=O)c1cccc2ccc(-c3ccc(O)cc3)nc12"
  value-reported: "2.81 µM (inactive)"
- compound: "C[C@@H]1[C@@H]2[C@@H](C=C3C4CCC5Cc6nc7c(nc6C[C@@]5(C)C4C[C@H](O)[C@]32CO)CC2CCC3C4=C[C@H]5O[C@@]6(OC(C)(CO)C[C@@H]6O)[C@H](C)[C@@]5(O)[C@]4(C)[C@@H](O)CC3[C@]2(C)C7)O[C@]12CCC(C)(C)O2 (some centres undefined)"
  value-reported: "0.401 µM (active)"
- compound: "O=C(O/N=C1/CCC/C1=C\\c1ccccc1)c1ccc(Cl)c(Cl)c1"
  value-reported: "> 100 µM (inactive)"
- compound: "CC(C)(C)C1CC[C@H]2c3c([nH]c4ccccc34)[C@H]3C(=O)N(c4ccc(F)cc4)C(=O)[C@H]3[C@H]2C1 (some centres undefined)"
  value-reported: "17.1 µM (inactive)"
- compound: "[O-][S+]1CSCS1 (centres undefined)"
  value-reported: "> 100 µM (inactive)"
- compound: "CN(C)NC1=C([N+](=O)[O-])C=NN(c2ccccc2)C1"
  value-reported: "1.81 µM (inactive)"
- compound: "COc1ccc2c3c1O[C@]1(C)C34CCN(C)C(C2)C42C=C[C@@]1(OC)c1c(O)ccc(O)c12"
  value-reported: "> 100 µM (inactive)"
- compound: "Cc1cc2c(s1)C(=O)c1sccc1C2=O"
  value-reported: "1.48 µM (inactive)"
- compound: "COc1ccc(N(C)Sc2ccccc2)cc1"
  value-reported: "68.4 µM (inactive)"
- compound: "COc1cc(C=O)c(-c2c(C=O)ccc3c2OCO3)c(OC)c1OC"
  value-reported: "> 100 µM (inactive)"
- compound: "Cc1cc(C)cc(Sc2c([N+](=O)[O-])ncn2C)c1"
  value-reported: "1.28 µM (inactive)"
- compound: "O=[N+]([O-])c1ccccc1C1SCc2nc3ccccc3n21 (centres undefined)"
  value-reported: "> 100 µM (inactive)"
- compound: "CC(=O)OC1CC2(O)C(CCC3(C)C(c4ccc(=O)oc4)CCC32O)C2(C)C1=CC(O)C1OC12 (centres undefined)"
  value-reported: "0.048 µM (active)"
- compound: "O=C1/C(=C(\\Nc2ccccc2)c2ccccc2)C=NN1c1ccccc1"
  value-reported: "< 0.01 µM (active)"
